- SYSTEM TESTED: human GIP receptor (Homo sapiens, UniProt P48546)
- Construct: expressed in transfected cells; host or cells: Chinese hamster ovary (CHO)
- Sequence (P48546 22-466): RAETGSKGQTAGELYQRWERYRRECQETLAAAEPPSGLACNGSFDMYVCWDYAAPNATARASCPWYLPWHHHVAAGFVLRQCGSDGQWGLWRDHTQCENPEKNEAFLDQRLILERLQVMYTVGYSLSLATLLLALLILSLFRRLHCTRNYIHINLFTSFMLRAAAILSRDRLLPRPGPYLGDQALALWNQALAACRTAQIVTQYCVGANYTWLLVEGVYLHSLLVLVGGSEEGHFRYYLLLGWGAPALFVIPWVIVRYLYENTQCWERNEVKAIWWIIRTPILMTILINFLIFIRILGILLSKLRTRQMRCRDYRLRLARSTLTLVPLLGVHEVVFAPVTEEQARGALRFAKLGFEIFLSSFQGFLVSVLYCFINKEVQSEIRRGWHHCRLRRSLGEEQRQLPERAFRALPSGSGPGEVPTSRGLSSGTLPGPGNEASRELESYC
- EXPERIMENT: In vitro cAMP activity in human GIP receptor-expressing CHO cells (LANCE cAMP kit)
- Format: cell-based
- CONDITION CONTEXT: long-acting conjugates; relative titer from cAMP EC50 compared to human GIP
Bridge positions count the residues as written; N and C are the ends. Square brackets hold non-standard residues; d marks the D form. Ends that are not written are not given here. Aib = CC(C)(N)C(=O)O
TEST READOUT: In vitro activity compared to native peptide (%) vs GIP

Suppose we examine the substance 22 (Y[Aib]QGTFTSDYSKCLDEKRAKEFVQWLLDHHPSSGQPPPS; bridge 16-20) [compound 22] ; what In vitro activity compared to native peptide (%) vs GIP value has been reported?
0.5%

Suppose we examine the substance 77 (Y[Aib]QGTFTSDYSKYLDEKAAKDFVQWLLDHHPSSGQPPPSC; bridge 16-20) [compound 77] ; what In vitro activity compared to native peptide (%) vs GIP value has been reported?
6.6%

Suppose we examine the substance 50 (H[Aib]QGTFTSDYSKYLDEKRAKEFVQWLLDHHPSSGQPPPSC; bridge 16-20) [compound 50] ; what In vitro activity compared to native peptide (%) vs GIP value has been reported?
0.7%

Return reported In vitro activity compared to native peptide (%) vs GIP values for all items listed beneath this line.
1. 21 (Y[Aib]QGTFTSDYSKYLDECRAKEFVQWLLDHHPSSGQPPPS; bridge 16-20) [compound 21]
2. 96 (Y[Aib]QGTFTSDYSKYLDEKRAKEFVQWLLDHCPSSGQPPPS; bridge 16-20) [compound 96]
3. 43 (Y[Aib]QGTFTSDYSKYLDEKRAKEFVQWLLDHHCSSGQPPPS; bridge 16-20) [compound 43]

0.2%
0.3%
0.6%

Suppose we examine the substance 42 (Y[Aib]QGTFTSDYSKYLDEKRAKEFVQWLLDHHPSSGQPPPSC; bridge 16-20) [compound 42] ; what In vitro activity compared to native peptide (%) vs GIP value has been reported?
1.2%

Reference source for all entries: patent US20230381281A1
